// reported binding signal per item
Molecular target: GST-Ap-NF-kB RHD (Exaiptasia pallida (Aiptasia), UniProt A0A913YAJ5 2-422)
Sequence: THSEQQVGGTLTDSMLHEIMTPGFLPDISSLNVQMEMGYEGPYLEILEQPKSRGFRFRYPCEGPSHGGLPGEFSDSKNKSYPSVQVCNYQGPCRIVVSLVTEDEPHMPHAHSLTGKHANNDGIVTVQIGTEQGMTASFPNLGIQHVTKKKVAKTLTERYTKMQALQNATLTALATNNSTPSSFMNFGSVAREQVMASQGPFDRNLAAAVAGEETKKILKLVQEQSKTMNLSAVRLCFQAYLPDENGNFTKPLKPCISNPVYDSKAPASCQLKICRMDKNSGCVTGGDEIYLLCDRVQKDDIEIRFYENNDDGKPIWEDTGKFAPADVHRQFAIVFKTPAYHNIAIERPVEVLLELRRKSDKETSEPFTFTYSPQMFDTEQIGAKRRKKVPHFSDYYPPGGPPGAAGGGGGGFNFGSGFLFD
Test: protein-binding microarray (PBM); PBM: ~300 nM protein, 6 mM HEPES pH 7.8, 80 mM KCl, 0.5 mM EDTA, 0.5 mM EGTA, 6% glycerol, 35 ng/ul poly-dIdC, 1% milk, 1 h, room temperature; Ap Aiptasia and Nv Nematostella (sea anemones) / Co Capsaspora / Aq Amphimedon (sponge) / Dm Drosophila / Hu human; RHD is the Rel homology domain; high values mean tight binding
Settings: dsDNA, one strand shown
Give the number; z-score is assumed, so skip it.

Here is how some sequences turned out for binding signal.
CCGATTAACATCAGGGAGTACACTGATGTTAATCGGGTCTTGATTCGCTTGACGCTGCTG
1.96
CCGATTAACATCACCCACCGATTTGATGTTAATCGGGTCTTGATTCGCTTGACGCTGCTG
1.07
CCGATTAACATCAGGGCTTTACCTGATGTTAATCGGGTCTTGATTCGCTTGACGCTGCTG
1.07
CCGATTAACATCATTTATCCCGGTGATGTTAATCGGGTCTTGATTCGCTTGACGCTGCTG
1.16
CCGATTAACATCAGGGAAACACATGATGTTAATCGGGTCTTGATTCGCTTGACGCTGCTG
2.17

Supply reported binding signal belonging to this sequence: CCGATTAACATCAAAATGTCCCCTGATGTTAATCGGGTCTTGATTCGCTTGACGCTGCTG
6.81

Supply reported binding signal belonging to this sequence: CCGATTAACATCACAAGTTTCCCTGATGTTAATCGGGTCTTGATTCGCTTGACGCTGCTG
4.14

Supply reported binding signal belonging to this sequence: CCGATTAACATCAAGGGAAGTCCTGATGTTAATCGGGTCTTGATTCGCTTGACGCTGCTG
3.99

Supply reported binding signal belonging to this sequence: CCGATTAACATCATAATCCCCCATGATGTTAATCGGGTCTTGATTCGCTTGACGCTGCTG
7.75

Cited source: paper PMC5700166
